Tested on: HCT-116
Test: Cytotoxicity against human HCT116 cells after 72 hrs by MTT assay
Assay type: functional, cell-based
Settings: HCT-116, 72 h
pIC50: −log10 of the molar value.
Entry flag: y if pIC50 reaches 5; n if it does not.

compound: COC(=O)/C(=C(\N)C(=O)c1ccccc1)C1C(=O)Nc2ccc(Br)cc21 (configuration not stated)
label.value: n

compound: CCOC(=O)/C(=C(\N)C(=O)c1ccccc1)C1C(=O)N(Cc2ccccc2)c2ccc(Br)cc21 (configuration not stated)
label.value: n

compound: CCOC(=O)/C(=C(\N)C(=O)c1ccc(OC)cc1)C1C(=O)N(Cc2ccccc2)c2ccc(Cl)cc21 (configuration not stated)
label.value: y

compound: CCOC(=O)/C(=C(\N)C(=O)c1ccccc1)C1C(=O)N(C)c2ccc(F)cc21 (configuration not stated)
label.value: y

compound: CCOC(=O)/C(=C(\N)C(=O)c1ccccc1)C1C(=O)N(Cc2ccc(Br)cc2)c2ccccc21 (configuration not stated)
label.value: y

compound: COC(=O)/C(=C(\N)C(=O)c1ccccc1)C1C(=O)N(Cc2ccccc2)c2ccc(C)cc21 (configuration not stated)
label.value: y

====

Test system: MDA-MB-231
Experiment: Cytotoxicity against human MDA-MB-231 cells after 72 hrs by MTT assay
Assay type: functional, cell-based
Settings: MDA-MB-231, 72 h
Binary call on IC50 with cut-off 10 µM: strictly below means criterion met, and equality or higher means criterion not met.

compound: CCOC(=O)/C(=C(\N)C(=O)c1ccc(OC)cc1)C1C(=O)N(Cc2ccccc2)c2ccc(Cl)cc21 (configuration not stated)
tested.on: MDA-MB-231
label.value: criterion met

compound: CCOC(=O)/C(=C(\N)C(=O)c1ccccc1)C1C(=O)N(Cc2ccccc2)c2ccc(Br)cc21 (configuration not stated)
tested.on: MDA-MB-231
label.value: criterion not met

compound: COC(=O)/C(=C(\N)C(=O)c1ccccc1)C1C(=O)N(Cc2ccccc2)c2ccc(C)cc21 (configuration not stated)
tested.on: MDA-MB-231
label.value: criterion not met

compound: CCOC(=O)/C(=C(\N)C(=O)c1ccccc1)C1C(=O)N(Cc2ccc(Br)cc2)c2ccccc21 (configuration not stated)
tested.on: MDA-MB-231
label.value: criterion met

compound: O=c1[nH]cc(F)c(=O)[nH]1 [FLUOROURACIL]
tested.on: MDA-MB-231
label.value: criterion not met

compound: COC(=O)/C(=C(\N)C(=O)c1ccccc1)C1C(=O)Nc2ccc(Br)cc21 (configuration not stated)
tested.on: MDA-MB-231
label.value: criterion met

compound: CCOC(=O)/C(=C(\N)C(=O)c1ccccc1)C1C(=O)N(C)c2ccc(F)cc21 (configuration not stated)
tested.on: MDA-MB-231
label.value: criterion met
